- ASSAY_SYSTEM: human DGKα (Homo sapiens)
- Construct: inferred from the same paragraph's 'obtained from Carna Biosciences')
- Sequence (P23743 whole entry): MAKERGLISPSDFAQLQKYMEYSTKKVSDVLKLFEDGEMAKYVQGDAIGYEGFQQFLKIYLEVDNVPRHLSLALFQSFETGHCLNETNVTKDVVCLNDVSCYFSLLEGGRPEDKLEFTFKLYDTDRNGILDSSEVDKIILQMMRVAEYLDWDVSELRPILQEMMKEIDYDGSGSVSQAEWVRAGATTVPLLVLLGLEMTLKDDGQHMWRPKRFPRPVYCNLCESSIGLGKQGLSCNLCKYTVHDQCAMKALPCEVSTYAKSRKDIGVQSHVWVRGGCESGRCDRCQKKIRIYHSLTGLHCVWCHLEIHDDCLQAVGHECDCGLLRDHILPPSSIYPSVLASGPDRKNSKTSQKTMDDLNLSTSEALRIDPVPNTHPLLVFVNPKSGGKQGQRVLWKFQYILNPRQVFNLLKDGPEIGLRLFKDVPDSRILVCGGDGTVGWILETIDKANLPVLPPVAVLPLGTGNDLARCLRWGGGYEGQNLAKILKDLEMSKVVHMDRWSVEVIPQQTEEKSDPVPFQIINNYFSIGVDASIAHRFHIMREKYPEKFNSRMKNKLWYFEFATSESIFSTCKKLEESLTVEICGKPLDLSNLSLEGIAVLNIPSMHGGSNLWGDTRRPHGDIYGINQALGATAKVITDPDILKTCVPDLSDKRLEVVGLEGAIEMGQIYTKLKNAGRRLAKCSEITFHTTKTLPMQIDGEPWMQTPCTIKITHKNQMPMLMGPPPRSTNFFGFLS
- TEST_PROTOCOL: DGKα Biochemical Activity Assay (ADP-Glo);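 note: recombinant enzyme converting diacylglycerol in lipid micelles with ATP, ADP formed detected by luminescence, IC50 from a four-parameter nonlinear fit, geometric mean across experiments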
Would you kindly list pIC50 for each of these compounds?
In simple prose, pIC50 is minus the logarithm base ten of a concentration in moles per litre.

-- ask Value lookup for pIC50; key = Cn1c(=O)nc(N(CC(F)(F)F)c2cc(F)cc(C#CC3(C(F)(F)F)CC3)c2)c2c(F)cccc21
-- reply 7.34

-- ask Value lookup for pIC50; key = CC(C)(C#Cc1nccc(N(CC(F)F)c2nc(=O)[nH]c3cccc(F)c23)c1F)C(F)F
-- reply 7.68

-- ask Value lookup for pIC50; key = O=c1nc(N(CC(F)(F)F)c2cc(F)cc(C#CC3(C(F)(F)F)CC3)c2)c2ccc(Cl)cc2[nH]1
-- reply 6.07

-- ask Value lookup for pIC50; key = [2H]C([2H])([2H])n1c(=O)nc(N(CC(F)F)c2ccnc(C#CC(C)(C)C#N)c2)c2c(F)cccc21
-- reply 7.74

-- ask Value lookup for pIC50; key = [2H]C([2H])([2H])n1c(=O)nc(N2CCOCc3c(C#CC(C)(C)N)cccc32)c2c(F)cccc21
-- reply 6.92

-- ask Value lookup for pIC50; key = CC1(C#Cc2cncc3c2CCCCN3c2nc(=O)[nH]c3ccc(F)c(F)c23)CC1
-- reply 7.95

-- ask Value lookup for pIC50; key = CCC(O)(C#Cc1cccc2c1CCCN2c1nc(=O)[nH]c2cccc(F)c12)CC
-- reply 6.82

-- ask Value lookup for pIC50; key = CC(C)(C#N)C#Cc1cccc2c1COCCN2c1nc(=O)[nH]c2c(F)cc(F)cc12
-- reply 8.31

-- ask Value lookup for pIC50; key = O=c1nc(N(CC(F)F)c2cc(F)cc(-c3cnc(C4CC4)cn3)c2)c2c(F)cccc2[nH]1
-- reply 7.52

-- ask Value lookup for pIC50; key = [2H]C([2H])([2H])n1c(=O)nc(N(CC(F)F)c2cc(F)cc(C#CC3(C(F)(F)F)CC3)c2)c2c(F)c(F)ccc21
-- reply 8.02

-- ask Value lookup for pIC50; key = O=c1nc(N2CCCc3c(C#CC4(C(F)F)CC4)cncc32)c2c(F)c(F)ccc2[nH]1
-- reply 8.16

-- ask Value lookup for pIC50; key = O=c1nc(N(CC(F)F)c2cc(F)cc(C#CC3(C(F)(F)F)CC3)c2)c2ccc(Cl)cc2[nH]1
-- reply 6.50

-- ask Value lookup for pIC50; key = [2H]C([2H])([2H])n1c(=O)nc(N2CCCc3c(C#CC(C)(C)O)cccc32)c2c(Cl)cccc21
-- reply 8.26

-- ask Value lookup for pIC50; key = CC(C)(O)C#Cc1cc(F)cc(N(CC(F)F)c2nc(=O)[nH]c3cccc(F)c23)c1
-- reply 7.48

-- ask Value lookup for pIC50; key = [2H]C([2H])([2H])n1c(=O)nc(N2CCOCc3c(C#CC4CCCN4CC(F)F)cccc32)c2c(F)cccc21 (stereo not drawn)
-- reply 8.27

-- ask Value lookup for pIC50; key = CC(F)(F)C1(C#Cc2cncc3c2CCCN3c2nc(=O)[nH]c3cccc(F)c23)CC1
-- reply 7.74

-- ask Value lookup for pIC50; key = [2H]C([2H])([2H])n1c(=O)nc(N2CCCOc3c(C#CC(C)(C)O)cccc32)c2c(F)cccc21
-- reply 7.88

-- ask Value lookup for pIC50; key = CC(C)(C#Cc1cccc2c1COCCN2c1nc(=O)[nH]c2cccc(F)c12)C(F)(F)F
-- reply 7.43

-- ask Value lookup for pIC50; key = O=c1nc(N(CC(F)F)c2cccc(C#CC3(C(F)(F)F)CC3)c2F)c2c(F)cccc2[nH]1
-- reply 7.14

-- ask Value lookup for pIC50; key = CN(c1cccc(C#CC2(C(F)(F)F)CC2)c1)c1nc(=O)[nH]c2cc(Cl)ccc12
-- reply 7.27

-- ask Value lookup for pIC50; key = [2H]C([2H])([2H])n1c(=O)nc(N2CCCc3c(C#CC4CCCN4CC(F)F)cccc32)c2c(F)cccc21 (stereo not drawn)
-- reply 8.03

-- ask Value lookup for pIC50; key = CC(C)(O)C#Cc1cccc2c1COCCN2c1nc(=O)[nH]c2ccc(F)c(F)c12
-- reply 8.33

-- ask Value lookup for pIC50; key = CN(c1cccc(C#CC(C)(C)O)c1)c1nc(=O)[nH]c2cc(Cl)ccc12
-- reply 7.02

-- ask Value lookup for pIC50; key = CC(F)(F)C1(C#Cc2nccc3c2CCCN3c2nc(=O)[nH]c3ccc(F)c(F)c23)CC1
-- reply 7.84

-- ask Value lookup for pIC50; key = [2H]C([2H])([2H])n1c(=O)nc(N2CCOCc3c(C#CC4(C(F)(F)F)CCN(CC(F)F)C4)cccc32)c2c(F)cccc21 (stereo not drawn)
-- reply 8.09

-- ask Value lookup for pIC50; key = O=c1nc(N2CCCc3c(C#CC4(C(F)(F)F)CC4)cncc32)c2c(F)c(F)ccc2[nH]1
-- reply 8.55

-- ask Value lookup for pIC50; key = CCC(C)(O)C#Cc1cccc2c1CCCN2c1nc(=O)[nH]c2cccc(F)c12 (stereo not drawn)
-- reply 7.50

-- ask Value lookup for pIC50; key = [2H]C([2H])([2H])n1c(=O)nc(N2CCCc3c(C#CC4(C(F)(F)F)CC4)cncc32)c2c(F)c(F)ccc21
-- reply 8.27

-- ask Value lookup for pIC50; key = [2H]C([2H])([2H])n1c(=O)nc(N2CCCc3c(C#CC4CCCN4C)cccc32)c2c(F)cccc21 (stereo not drawn)
-- reply 7.78

-- ask Value lookup for pIC50; key = [2H]C([2H])([2H])n1c(=O)nc(N2CCOCc3c(C#CC(C)(C)C(F)(F)F)cccc32)c2c(F)cccc21
-- reply 8.22
